Target: T1, human TREM2 (human, UniProt Q9NZC2 19-174, limits assumed)
T1 sequence: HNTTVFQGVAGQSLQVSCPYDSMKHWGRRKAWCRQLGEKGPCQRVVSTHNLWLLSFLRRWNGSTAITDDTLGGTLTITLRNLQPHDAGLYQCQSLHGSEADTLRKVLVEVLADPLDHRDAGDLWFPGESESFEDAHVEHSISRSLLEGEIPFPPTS
Test: yeast-displayed Fab FACS, 1st screen 110 nM
Measured binding signal fold over 6E7 parental accompanies every entry in the list below.
Report as a plain number; the unit fold is understood.

Field: example entries. Status: answers known.
Q: Give the value of binding signal fold over 6E7 parental reported for the following: V78 (Fab, V domains shown) VH: EVQLVQSGAEVKKPGESLKISCKGSGYRFTSYWIAWVRQMPGKGLEWMGIIYPGDSDTRYSPSFQGQVTISADKSISTAYLQWSSLKASDTAMYFCARQRTFYYDSSDYFDYWGQGTLVTVSS VL: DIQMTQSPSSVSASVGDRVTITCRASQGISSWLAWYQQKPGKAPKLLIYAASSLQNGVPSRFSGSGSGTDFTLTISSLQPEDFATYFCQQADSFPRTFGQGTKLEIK
Result: 0.86

Q: Give the value of binding signal fold over 6E7 parental reported for the following: V80 (Fab, V domains shown) VH: EVQLVQSGAEVKKPGESLKISCKGSGYSFTSYWIAWVRQMPGKGLEWMGIIYPGDSDTRYSPSFQGQVTISADKSISTAYLQWSSLKASDTAMYFCARQRNFYYDSSDYFDYWGQGTLVTVSS VL: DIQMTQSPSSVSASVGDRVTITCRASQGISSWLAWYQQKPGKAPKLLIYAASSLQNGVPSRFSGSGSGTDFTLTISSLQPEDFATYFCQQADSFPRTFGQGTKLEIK
Result: 0.59

Q: Give the value of binding signal fold over 6E7 parental reported for the following: V45 (Fab, V domains shown) VH: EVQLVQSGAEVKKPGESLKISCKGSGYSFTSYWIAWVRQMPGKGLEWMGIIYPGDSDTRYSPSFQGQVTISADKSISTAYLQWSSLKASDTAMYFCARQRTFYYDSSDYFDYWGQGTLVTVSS VL: DIQMTQSPSSVSASVGDRVTITCRASQGISSFLAWYQQKPGKAPKLLIYAASSLQNGVPSRFSGSGSGTDFTLTISSLQPEDFATYFCQQADSFPRTFGQGTKLEIK
Result: 0.43

Q: Give the value of binding signal fold over 6E7 parental reported for the following: V34 (Fab, V domains shown) VH: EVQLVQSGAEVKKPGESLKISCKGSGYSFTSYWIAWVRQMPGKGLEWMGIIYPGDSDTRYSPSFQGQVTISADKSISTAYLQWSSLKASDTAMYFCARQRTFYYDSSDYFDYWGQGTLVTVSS VL: DIQMTQSPSSVSASVGDRVTITCRASQGISSWLAWYQQKPGKAPKLLIYAASSLQDGVPSRFSGSGSGTDFTLTISSLQPEDFATYFCQQADSFPRTFGQGTKLEIK
Result: 0.34

Okay, next one:
Q: Give the value of binding signal fold over 6E7 parental reported for the following: V66 (Fab, V domains shown) VH: EVQLVQSGAEVKKPGESLKISCKGSGTSFTSYWIAWVRQMPGKGLEWMGIIYPGDSDTRYSPSFQGQVTISADKSISTAYLQWSSLKASDTAMYFCARQRTFYYDSSDYFDYWGQGTLVTVSS VL: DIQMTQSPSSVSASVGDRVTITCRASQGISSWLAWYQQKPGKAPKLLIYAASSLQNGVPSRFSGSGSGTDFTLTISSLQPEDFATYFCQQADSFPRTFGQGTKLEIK
Result: 0.25
